Test system: 786-0
Measurement notes: NCI tumour cell line growth inhibition, 48 h
Active and inactive are the calls of the source. No stated cut-off is given here; in the data, active = GI50 up to about 1.1 µM and inactive = higher.
Possible outcomes: 1 (yes) (active), 0 (no) (inactive)

| Molecule | Class name |
| --- | --- |
| O=C1c2ccccc2C(=O)N1CCCSc1ccccc1 | 0 (no) |
| NC(CCC(=O)O)(CCC(=O)O)CCC(=O)O | 0 (no) |
| CC(=O)Nc1ccc2nc(N)n[n+]([O-])c2c1 | 0 (no) |
| COC(=O)[C@@]1(O)CC(C)C=C1C=O (some centres undefined) | 0 (no) |
| CCOC(=O)c1c[nH]c2cc3c(cc2c1=O)CCS3 | 0 (no) |
| c1cc2c(cc1NC1=NCCO1)CCCC2 | 0 (no) |
| NC1CCC2(O)c3ccccc3C2C1 (centres undefined) | 0 (no) |
| CC(=O)OC1COC(n2c(=S)n(-c3ccc(C)cc3)c(=O)c3ccccc32)C(OC(C)=O)C1OC(C)=O (centres undefined) | 0 (no) |
| O=C(/C=C\c1cccc2ccccc12)c1ccc(Cl)cc1Cl | 0 (no) |
| COc1ccc2nc3ccccc3c(NCCCN(C)CCCl)c2c1 | 1 (yes) |
| NC(Cc1c[nH]c2ccccc12)P(=O)(O)O (centres undefined) | 0 (no) |
| Nc1ccccc1C(=O)NNC(=O)c1ccccc1N | 0 (no) |
| O=c1nc2sc3ccc4ccccc4c3n2nc1-c1ccccc1 | 0 (no) |
| CC(=O)Nc1ccc(-c2nnc(SCC(=O)Nc3ccccc3[N+](=O)[O-])o2)cc1 | 0 (no) |
| Clc1ccccc1C(c1ccccc1)(c1ccccc1)n1ccnc1 [CLOTRIMAZOLE] | 0 (no) |
| COC(=O)C12C(=O)CC3CCC1C32C(=O)OC (centres undefined) | 0 (no) |
| C#CCOC(=O)c1ccc(OC(C)=O)cc1 | 0 (no) |
| CCCCCCCCCCCCCCCCCCNc1ccn(C2OC(CO)C(O)C2O)c(=O)n1 (centres undefined) | 0 (no) |
| C=C1C(=O)OC2/C=C(\C)C(=O)CC3OC(C)(C)OC3(C)CC(OC(=O)/C(C)=C/C)C12 (centres undefined) | 0 (no) |
| CCCCCCCCCCCCCCCCCCN(C)CC(COC)OP(=O)([O-])OCC[N+](C)(C)C (centres undefined) | 1 (yes) |
| COC(=O)NC(Cc1ccccc1)NC(C)=O (centres undefined) | 0 (no) |
| CC1=NN2C(c3ccc(C)cc3)=CSC2=NC(C)(C)C1 | 0 (no) |
| COC(=O)C1CC23CCCN4CCC5(c6ccccc6N(C=O)C15CC2)C43 (centres undefined) | 0 (no) |
| O=C(CCc1ccccc1)NS(=O)(=O)c1ccccc1 | 0 (no) |
